- testedSystem: cGAS (Homo sapiens, UniProt Q8N884)
- Sequence (Q8N884 whole entry): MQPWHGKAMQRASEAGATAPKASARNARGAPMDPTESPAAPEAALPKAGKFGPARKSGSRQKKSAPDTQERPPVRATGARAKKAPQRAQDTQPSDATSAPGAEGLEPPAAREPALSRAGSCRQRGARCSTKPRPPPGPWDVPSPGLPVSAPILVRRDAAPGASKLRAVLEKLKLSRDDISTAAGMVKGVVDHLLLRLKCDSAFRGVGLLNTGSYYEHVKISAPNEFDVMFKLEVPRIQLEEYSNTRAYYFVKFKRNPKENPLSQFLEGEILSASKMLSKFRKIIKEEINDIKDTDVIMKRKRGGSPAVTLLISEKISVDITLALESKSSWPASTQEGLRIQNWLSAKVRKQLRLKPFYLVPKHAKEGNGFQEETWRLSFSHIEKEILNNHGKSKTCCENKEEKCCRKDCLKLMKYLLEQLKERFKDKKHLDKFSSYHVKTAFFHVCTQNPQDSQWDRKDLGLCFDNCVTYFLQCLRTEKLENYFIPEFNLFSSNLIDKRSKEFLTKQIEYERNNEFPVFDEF
- experimentNotes: ISD70-driven IP-10 (and IFN-β) production in THP-1 cells, ELISA
- Type: cell-based
- Parameters: endogenous in cells; host or cells: THP-1 (undifferentiated)
- experimentalParameters: ASO 100 nM; relative to ISD70 only, given as fraction
cGAS 100 nM (averaged IP-10 level relative to ISD70 condition) values by entry
Note: the reply should be a number with no unit written.

Some solved cases for reference:
ACCACGTCTGCTCTAA (antisense; LNA-modified, pattern not given here) [CAMSAP1-1635 LNA KL]: 0.638
GAGGTCTTGGCTTCGT (antisense; LNA-modified, pattern not given here) [MB21D1-525 LNA V1]: 0.508
AGGCCCTTCGCACTTC (antisense; LNA-modified, pattern not given here) [EGFR-1225 LNA V1]: 0.629

Q) Specify the recorded cGAS 100 nM (averaged IP-10 level relative to ISD70 condition) for AGATTTCAGAGCAGCT (antisense; LNA-modified, pattern not given here) [EGFR-4885 LNA KL] , system: cGAS (Homo sapiens, UniProt Q8N884).
A) 0.625

====

TLR9 500 nM (averaged NF-κB-Luciferase level relative to ODN2006 condition) values for the sequences below.
- testedSystem: human TLR9 (Homo sapiens)
- Construct: HA; host or cells: 293XL-hTLR9-HA (HEK293)
- experimentNotes: HEK-TLR9 NF-κB-luciferase reporter, ODN2006 stimulation
- Assay type: cell-based
- experimentalParameters: ASO 500 nM; relative to ODN2006 only, given as fraction
Write the value as a bare number.

Illustrative cases are given below, each with its answer.
AAAGGACTGAGGAAAG (antisense; LNA-modified, pattern not given here) [CAMSAP1-6273 LNA KL]: 0.185
ACACTTCGTGGGGTCC (antisense; LNA-modified, pattern not given here) [HPRT LNA-665 V1]: 0.001
CCATCCATGAGGTCCT (antisense; LNA-modified, pattern not given here) [CTNN2B-2545 LNA V1]: 0.476

Let us move to another entry and its TLR9 500 nM (averaged NF-κB-Luciferase level relative to ODN2006 condition).
Q) Write down TLR9 500 nM (averaged NF-κB-Luciferase level relative to ODN2006 condition) measured for item TCCTTGCACGTGGCTT (antisense; LNA-modified, pattern not given here) [EGFR-1014 LNA V1]
A) 1.027

====

- testedSystem: TLR8 (Homo sapiens, UniProt Q9NR97)
- Sequence (Q9NR97 27-1041): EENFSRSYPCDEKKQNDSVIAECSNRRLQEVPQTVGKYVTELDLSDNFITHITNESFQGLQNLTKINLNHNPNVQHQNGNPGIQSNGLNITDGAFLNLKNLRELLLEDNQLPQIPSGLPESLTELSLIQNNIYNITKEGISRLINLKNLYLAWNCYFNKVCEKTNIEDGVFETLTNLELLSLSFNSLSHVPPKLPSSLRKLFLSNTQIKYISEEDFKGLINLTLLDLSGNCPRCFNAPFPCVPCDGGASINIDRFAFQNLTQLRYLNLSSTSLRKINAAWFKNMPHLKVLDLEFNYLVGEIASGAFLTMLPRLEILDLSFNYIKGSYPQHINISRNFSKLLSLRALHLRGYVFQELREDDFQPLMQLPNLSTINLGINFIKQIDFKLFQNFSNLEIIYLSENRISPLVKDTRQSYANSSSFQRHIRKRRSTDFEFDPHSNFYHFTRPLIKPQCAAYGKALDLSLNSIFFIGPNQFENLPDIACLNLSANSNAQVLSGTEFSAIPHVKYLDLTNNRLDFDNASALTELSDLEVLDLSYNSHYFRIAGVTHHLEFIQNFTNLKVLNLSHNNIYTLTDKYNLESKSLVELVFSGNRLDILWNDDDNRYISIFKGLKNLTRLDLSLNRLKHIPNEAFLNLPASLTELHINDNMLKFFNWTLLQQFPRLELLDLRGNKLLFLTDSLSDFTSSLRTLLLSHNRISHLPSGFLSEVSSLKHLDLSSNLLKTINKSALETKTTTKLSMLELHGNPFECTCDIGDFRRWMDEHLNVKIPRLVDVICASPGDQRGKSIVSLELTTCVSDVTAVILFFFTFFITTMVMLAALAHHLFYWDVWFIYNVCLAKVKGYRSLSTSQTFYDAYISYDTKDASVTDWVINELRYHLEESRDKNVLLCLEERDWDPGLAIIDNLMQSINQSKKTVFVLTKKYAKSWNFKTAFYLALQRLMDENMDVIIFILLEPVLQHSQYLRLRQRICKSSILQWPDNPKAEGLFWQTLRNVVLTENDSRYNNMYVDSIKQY
- experimentNotes: HEK-TLR8 NF-κB-luciferase reporter, R848 or Motolimod stimulation (potentiation or inhibition)
- Format: cell-based
- Parameters: expressed in transfected cells; host or cells: 293XLhTLR8 (HEK293)
- experimentalParameters: ASO 100 nM; relative to R848 only
readoutKind: TLR8 100 nM (averaged NF-κB-Luciferase level relative to R848 condition, fold increase)
Lab note: record just the number, no unit beside it.

Q) Supply reported TLR8 100 nM (averaged NF-κB-Luciferase level relative to R848 condition, fold increase) belonging to this sequence: TCCTTGCACGTGGCTT (antisense; LNA-modified, pattern not given here) [EGFR-1014 LNA V1]
A) 0.491

Q) Write down TLR8 100 nM (averaged NF-κB-Luciferase level relative to R848 condition, fold increase) measured for item TGACAAAGATTCACTG (antisense; LNA-modified, pattern not given here) [HPRT LNA-1353 KL]
A) 0.633

Q) Return reported TLR8 100 nM (averaged NF-κB-Luciferase level relative to R848 condition, fold increase). Input sequence: ACACTTCGTGGGGTCC (antisense; LNA-modified, pattern not given here) [HPRT LNA-665 V1]
A) 0.422

====

- testedSystem: human TLR9 (Homo sapiens)
- Construct: HA; host or cells: 293XL-hTLR9-HA (HEK293)
- Sequence (Q9NR96 26-1032): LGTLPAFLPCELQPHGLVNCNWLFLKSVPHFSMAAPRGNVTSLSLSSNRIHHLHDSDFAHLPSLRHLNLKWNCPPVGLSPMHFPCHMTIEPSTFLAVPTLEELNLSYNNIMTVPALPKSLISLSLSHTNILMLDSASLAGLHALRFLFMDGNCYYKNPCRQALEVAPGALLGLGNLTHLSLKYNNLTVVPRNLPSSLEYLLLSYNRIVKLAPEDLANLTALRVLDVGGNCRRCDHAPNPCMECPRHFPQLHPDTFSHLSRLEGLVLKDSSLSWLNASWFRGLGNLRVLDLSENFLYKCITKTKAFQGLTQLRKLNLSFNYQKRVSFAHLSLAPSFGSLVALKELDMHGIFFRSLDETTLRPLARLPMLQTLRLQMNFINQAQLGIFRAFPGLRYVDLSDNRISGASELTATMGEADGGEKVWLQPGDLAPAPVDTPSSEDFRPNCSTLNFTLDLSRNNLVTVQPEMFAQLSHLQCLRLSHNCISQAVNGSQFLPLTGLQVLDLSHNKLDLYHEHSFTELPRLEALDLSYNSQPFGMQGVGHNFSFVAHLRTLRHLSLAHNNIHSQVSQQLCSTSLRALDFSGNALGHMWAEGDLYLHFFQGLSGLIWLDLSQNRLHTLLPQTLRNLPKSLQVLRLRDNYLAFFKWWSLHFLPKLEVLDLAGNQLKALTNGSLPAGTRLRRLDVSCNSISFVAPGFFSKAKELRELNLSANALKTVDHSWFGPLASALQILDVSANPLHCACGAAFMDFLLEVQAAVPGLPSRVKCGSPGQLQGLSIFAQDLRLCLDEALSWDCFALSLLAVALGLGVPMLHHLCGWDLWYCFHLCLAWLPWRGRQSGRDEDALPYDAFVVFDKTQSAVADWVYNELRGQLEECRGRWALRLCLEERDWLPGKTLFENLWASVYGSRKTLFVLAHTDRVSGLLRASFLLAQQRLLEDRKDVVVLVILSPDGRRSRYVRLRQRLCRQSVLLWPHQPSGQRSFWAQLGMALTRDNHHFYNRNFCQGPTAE
- experimentNotes: HEK-TLR9 NF-κB-luciferase reporter, ODN2006 stimulation
- Type: cell-based
- experimentalParameters: MOE-modified ASO at 100 nM; averaged NF-κB-Luciferase relative to ODN2006 condition
- Experimental: In such examples, inhibition of TLR9 activity can be identified by observation of an overall decreased TLR9 response of the cell population, or a lower proportion of cells having TLR9-positive activity as compared to positive control condition in which cells are treated with TLR9 agonist in the absence of the oligonucleotide (or in the presence of an appropriate control inhibitory agent). […] TLR9 activity can then be determined by a luciferase assay. […]
Listing of entries alongside the reported TLR9 100 nM.
Answer as a number with no unit attached.

TCAAAGGACTGAGGAAAGGG (antisense; 2'-MOE modified, pattern not given here) [CAMSAP1-6273 MOE]: 0.265
GCGTGTCTGGAAGCTTCCTT (antisense; 2'-MOE modified, pattern not given here) [CTNN2B-809 MOE]: 0.263
TAGGCACTTTGCCTCCTTCT (antisense; 2'-MOE modified, pattern not given here) [EGFR-2859 MOE]: 0.808
TCGCACTTCAGTCTGAGCAG (antisense; 2'-MOE modified, pattern not given here) [MB21D1-719 MOE]: 0.521

Q) Note down TLR9 100 nM recorded for ACAACCCCTTTCACCATCCC (antisense; 2'-MOE modified, pattern not given here) [MB21D1-689 MOE]
A) 0.785

Q) Supply measured TLR9 100 nM of ATGCCATCCACTTGATAGGC (antisense; 2'-MOE modified, pattern not given here) [EGFR-2874 MOE] in your reply.
A) 0.712

Q) Please report TLR9 100 nM for the following sequence: GGGAAAGGTTATGCAAGGTC (antisense; 2'-MOE modified, pattern not given here) [CTNN2B-916 MOE]
A) 0.521

====

- testedSystem: human TLR9 (Homo sapiens, UniProt Q9NR96)
- Construct: HA; host or cells: 293XL-hTLR9-HA (HEK293)
- Sequence (Q9NR96 26-1032): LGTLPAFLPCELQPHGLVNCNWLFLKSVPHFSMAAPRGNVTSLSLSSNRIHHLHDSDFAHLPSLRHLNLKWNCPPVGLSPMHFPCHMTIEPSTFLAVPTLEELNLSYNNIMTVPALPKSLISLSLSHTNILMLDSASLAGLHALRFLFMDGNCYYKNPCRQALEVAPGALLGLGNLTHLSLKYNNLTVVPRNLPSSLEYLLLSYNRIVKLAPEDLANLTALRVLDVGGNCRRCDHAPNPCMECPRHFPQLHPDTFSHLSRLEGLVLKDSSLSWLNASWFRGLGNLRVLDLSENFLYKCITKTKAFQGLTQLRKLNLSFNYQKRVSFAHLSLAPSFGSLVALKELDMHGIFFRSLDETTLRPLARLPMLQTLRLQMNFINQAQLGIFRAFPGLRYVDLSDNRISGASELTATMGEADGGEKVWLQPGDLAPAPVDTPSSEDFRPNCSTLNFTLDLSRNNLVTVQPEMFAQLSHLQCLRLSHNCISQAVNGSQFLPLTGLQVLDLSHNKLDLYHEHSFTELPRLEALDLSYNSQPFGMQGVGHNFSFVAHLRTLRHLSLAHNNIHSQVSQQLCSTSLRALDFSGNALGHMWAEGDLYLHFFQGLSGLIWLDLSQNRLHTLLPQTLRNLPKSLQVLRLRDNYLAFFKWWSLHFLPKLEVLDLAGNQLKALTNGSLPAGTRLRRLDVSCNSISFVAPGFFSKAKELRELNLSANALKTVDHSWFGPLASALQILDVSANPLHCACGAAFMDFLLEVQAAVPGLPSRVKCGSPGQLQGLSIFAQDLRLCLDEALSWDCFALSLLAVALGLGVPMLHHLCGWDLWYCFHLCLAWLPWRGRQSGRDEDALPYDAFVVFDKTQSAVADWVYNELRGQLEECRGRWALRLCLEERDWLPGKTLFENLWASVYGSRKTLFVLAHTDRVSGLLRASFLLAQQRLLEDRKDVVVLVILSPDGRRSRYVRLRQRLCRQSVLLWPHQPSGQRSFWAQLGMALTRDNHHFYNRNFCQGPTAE
- experimentNotes: HEK-TLR9 NF-κB-luciferase reporter, ODN2006 stimulation
- Assay type: cell-based
- experimentalParameters: MOE-modified ASO at 500 nM; averaged NF-κB-Luciferase relative to ODN2006 condition
- Description: In such examples, inhibition of TLR9 activity can be identified by observation of an overall decreased TLR9 response of the cell population, or a lower proportion of cells having TLR9-positive activity as compared to positive control condition in which cells are treated with TLR9 agonist in the absence of the oligonucleotide (or in the presence of an appropriate control inhibitory agent). […] TLR9 activity can then be determined by a luciferase assay. […]
Lab note: compare TLR9 500 nM with 0.5, writing YES if less and NO if equal or more.

CCAACACTTCGTGGGGTCCT (antisense; 2'-MOE modified, pattern not given here) [HPRT-666 MOE]: NO
GATGCTCCTCGGTCTCCCTT (antisense; 2'-MOE modified, pattern not given here) [CAMSAP1-1850 MOE]: YES
GGTCCATACCCAAGGCATCC (antisense; 2'-MOE modified, pattern not given here) [CTNN2B-2446 MOE]: YES
TAGGCACTTTGCCTCCTTCT (antisense; 2'-MOE modified, pattern not given here) [EGFR-2859 MOE]: NO

Q) Strictly below 0.5: is that where TLR9 500 nM of GTCCAAGATCAGCAGTCTCA (antisense; 2'-MOE modified, pattern not given here) [CTNN2B-2341 MOE] sits?
A) NO

Q) API: query returns whether the sequence falls strictly under 0.5 in TLR9 500 nM. Query: CTCTTGAAGCATCGTATCAC (antisense; 2'-MOE modified, pattern not given here) [CTNN2B-3648 MOE]
A) YES

Q) Record AACACTTCGTGGGGTCCTTT (antisense; 2'-MOE modified, pattern not given here) [HPRT-664 MOE] : is its TLR9 500 nM strictly below 0.5?
A) YES

Q) Criterion: TLR9 500 nM strictly below 0.5. Is it met by GAACCACGTCTGCTCTAACA (antisense; 2'-MOE modified, pattern not given here) [CAMSAP1-1635 MOE] ?
A) YES

Q) Here's an entry: GGAGCTTCGAGGCCCCAGGC (MOE modified, pattern not given here) [MB21D1-616 MOE] . Is its TLR9 500 nM below 0.5?
A) YES

Q) Decide: TLR9 500 nM of CACCCACTTGGCAGACCATC (antisense; 2'-MOE modified, pattern not given here) [CTNN2B-1576 MOE] strictly below 0.5?
A) NO

Q) Given ATGTCCCCTGTTGACTGGTC (antisense; 2'-MOE modified, pattern not given here) [HPRT-489 MOE] , is recorded TLR9 500 nM strictly lower than 0.5?
A) NO

Q) Input TCGCACTTCAGTCTGAGCAG (antisense; 2'-MOE modified, pattern not given here) [MB21D1-719 MOE] ; condition: TLR9 500 nM strictly below 0.5. Does it hold?
A) YES

Q) API: query returns whether the sequence falls strictly under 0.5 in TLR9 500 nM. Query: GCGGAGGTCTTGGCTTCGTG (antisense; 2'-MOE modified, pattern not given here) [MB21D1-526 MOE]
A) YES

Q) Hello, I'm reviewing records and need to know if TLR9 500 nM of GAGTCTCTGGAGCTTCCTCT (antisense; 2'-MOE modified, pattern not given here) [CAMSAP1-2456 MOE] is below 0.5. Could you check?
A) YES

Q) Threshold test, TLR9 500 nM < 0.5: TTGGCTCGGCTTGCCTACTT (antisense; 2'-MOE modified, pattern not given here) [CAMSAP1-5594 MOE]
A) YES

Q) Dear colleague, could you confirm whether TLR9 500 nM of GCCCATCCATGAGGTCCTGG (antisense; 2'-MOE modified, pattern not given here) [CTNN2B-2545 MOE] falls below 0.5? Thanks.
A) YES

Q) TLR9 500 nM under 0.5? Item: TTCTGCAGCTTCCTTGTCCT (antisense; 2'-MOE modified, pattern not given here) [CTNN2B-2136 MOE]
A) YES

Q) Item AATCCGCCCAAAGGGAACTG (antisense; 2'-MOE modified, pattern not given here) [HPRT-1027 MOE] : TLR9 500 nM beneath 0.5, strictly?
A) NO

Q) Given GTCTTGGCTTCGTGGAGCAG (antisense; 2'-MOE modified, pattern not given here) [MB21D1-520 MOE] , is recorded TLR9 500 nM strictly lower than 0.5?
A) NO

Hey, just so you know, these numbers are from patent US20240384268A1.
